EXPERIMENTAL SYSTEM: Sigma intracellular receptor 2 (Homo sapiens, UniProt Q5BJF2)
Sequence (Q5BJF2 whole entry): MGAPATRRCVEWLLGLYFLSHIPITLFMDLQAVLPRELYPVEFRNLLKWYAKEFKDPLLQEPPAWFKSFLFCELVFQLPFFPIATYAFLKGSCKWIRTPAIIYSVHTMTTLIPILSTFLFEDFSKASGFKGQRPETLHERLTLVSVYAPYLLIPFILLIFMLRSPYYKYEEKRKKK
TEST NAME: Displacement of [3H]DTG from sigma2 receptor(unknown origin)
pKi: −log10 of the molar value.
EXPERIMENTAL ENDPOINT: pKi

SMILES STR: COc1cc2c(cc1O)CN(Cc1ccccc1CNC(=O)c1cccc(Br)c1)CC2
pKi: 6.54

A. COc1ccc(C(=O)NCc2ccccc2CN2CCc3cc(OC)c(O)cc3C2)cc1
B. COc1cc2c(cc1OC)CN(CCCCNC(=O)c1cc(Br)cc(OC)c1OC)CC2
C. COc1cc2c(cc1O)CN(Cc1ccccc1CNC(=O)c1cccc(Cl)c1)CC2
D. COc1cccc(C(=O)NCc2ccccc2CN2CCc3cc(OC)c(O)cc3C2)c1
List items by pKi in falling order. Please write the labels in the order that was asked for.
B, C, D, A
(B: 7.99, C: 6.62, D: 6.21, A: 5.85)
